Reported Protein binding, Rat is given for each of the following compounds.
Tested on: plasma proteins
assayNotes: Binding to plasma proteins (ultrafiltration)
Assay type: in vitro ADME, rat
testConditions: presence of NaF+EDTA, 1000 ng/ml

// below: answered compounds
- compound: "CCCCCC[C@H]1C(=O)O[C@H](C)[C@H](NC(=O)c2cccc(NC=O)c2OC)C(=O)O[C@@H](C)[C@@H]1OC(=O)CC(C)C [2-OMeA1, 2-methoxy antimycin A1]"
  reported: ">99.9%"
- compound: "CCCCCC[C@H]1C(=O)O[C@H](C)[C@H](NC(=O)c2cccc(NC=O)c2OC)C(=O)O[C@@H](C)[C@@H]1OC(=O)CCC [2-OMeA2, 2-methoxy antimycin A2]"
  reported: "99.9%"
- compound: "CC[C@H]1C(=O)O[C@H](C)[C@H](NC(=O)c2cccc(NC=O)c2OC)C(=O)O[C@@H](C)[C@@H]1OC(=O)CC(C)C [2-OMeA5, 2-OMe antimycin A5]"
  reported: ">99.9%"

[Q] Look up plasma proteins data: Protein binding, Rat of CCCC[C@H]1C(=O)OC(C)[C@H](NC(=O)c2cccc(NC=O)c2OC)C(=O)O[C@@H](C)C1OC(=O)CC(C)C (stereo partly shown) [2-OMeA3, Antimycin A3 methyl ether] , then report it.
[A] 99.8%
